The compounds listed here are annotated with their MAO-B (%) @ 10μΜ.
Biological target: rat monoamine oxidase B (Rattus norvegicus, UniProt P19643)
Construct: from tissue
Sequence (P19643 whole entry): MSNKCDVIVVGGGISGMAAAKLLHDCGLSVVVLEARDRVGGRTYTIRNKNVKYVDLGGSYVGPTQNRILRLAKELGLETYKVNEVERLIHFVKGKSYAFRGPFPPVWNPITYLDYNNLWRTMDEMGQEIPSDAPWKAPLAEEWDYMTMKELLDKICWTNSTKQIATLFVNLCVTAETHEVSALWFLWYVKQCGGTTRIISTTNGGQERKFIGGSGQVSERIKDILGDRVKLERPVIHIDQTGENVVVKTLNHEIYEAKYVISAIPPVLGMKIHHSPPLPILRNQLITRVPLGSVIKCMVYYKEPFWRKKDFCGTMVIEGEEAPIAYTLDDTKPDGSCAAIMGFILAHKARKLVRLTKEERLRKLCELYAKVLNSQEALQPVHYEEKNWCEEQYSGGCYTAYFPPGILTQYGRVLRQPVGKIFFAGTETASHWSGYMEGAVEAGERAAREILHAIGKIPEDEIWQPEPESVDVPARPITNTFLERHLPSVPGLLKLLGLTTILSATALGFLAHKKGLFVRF
Experiment: Inhibition of MAO-B (spectrofluorimetric method)
Format: biochemical
Conditions: 10 μM compound
quantity.kind: MAO-B (%) @ 10μΜ

[
  {
    "compound": "O=c1cc(OCc2cc(Cn3cnc4c(N5CCOCC5)ncnc43)no2)c2ccccc2o1 [13i]",
    "assayed.system": "rat monoamine oxidase B (Rattus norvegicus, UniProt P19643)",
    "readout.value": 9
  },
  {
    "compound": "Cc1cc(=O)oc2cc(OCC3=NOC(Cn4cnc5c(Cl)ncnc54)C3)ccc12 (centres unmarked) [11e]",
    "assayed.system": "rat monoamine oxidase B (Rattus norvegicus, UniProt P19643)",
    "readout.value": 9
  }
]
